- study.system: PICK1, Q9NRD5
- Sequence (Q9NRD5 17-115): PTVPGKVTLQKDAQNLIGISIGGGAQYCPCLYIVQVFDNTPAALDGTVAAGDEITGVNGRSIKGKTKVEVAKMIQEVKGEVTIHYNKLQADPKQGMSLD
- method: holdup assay
- Set-up: key: below the threshold = too weak to quantify, mostly under pKd 3.1 to 4
- test.conditions: plain residues with an end cap or a label only (N-terminal biotin on a linker: ado-ado)
recorded.metric: pKd

binder | pKd
NTANRRTTPV [CACNG2, Q9Y698] | below the threshold
LPAVCYDIDI [PTTG2, Q9NZH5] | below the threshold
MQHQRTHTRV [ZSCAN30, Q86W11] | below the threshold
DDASLPVSDV [PLEKHA1, Q9HB21] | below the threshold
SVTSERETNI [SLC16A7, O60669] | below the threshold
REEPDHSTEV [CCRL2, O00421] | below the threshold

Summary for this binder, RDPPAEWTRV [PTPN18, Q99952] : pKd is below the threshold

Summary for this binder, LKDDELKTKL [SLCO1A2, P46721] : pKd is below the threshold

Summary for this binder, VLYPREGTEV [FOXI1, Q12951] : pKd is 4.21
